target.entity: SCRIB_3, Q14160
Sequence (Q14160 999-1103): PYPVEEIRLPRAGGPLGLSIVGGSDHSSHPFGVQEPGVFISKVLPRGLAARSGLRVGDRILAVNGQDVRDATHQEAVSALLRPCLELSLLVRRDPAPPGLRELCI
assay.summary: holdup assay
Set-up: key: below the threshold = too weak to quantify, mostly under pKd 3.1 to 4
test.context: plain residues with an end cap or a label only (N-terminal biotin on a linker: ado-ado)
attribute.measured: pKd

{"binder": "NISARRFTLC [FAM167B, Q9BTA0]", "recorded.measurement": "below the threshold"}
{"binder": "PDSYHRRDFW [U2AF2, P26368]", "recorded.measurement": "below the threshold"}
{"binder": "QKNKDREYYV [NRXN3, Q9HDB5]", "recorded.measurement": "below the threshold"}
